target: SIRT1 (Homo sapiens); experiment: TAMRA based mass spectrometry assay of SIRT1 activity; assay type: biochemical; details: TAMRA assay; concentration giving 150% activation of SIRT1
quantity: TAMRA EC1.5 (μM)

>>> result("Cc1cc(C(=O)Nc2cnn3ccc(-c4ccccc4OC(F)(F)F)nc23)nc(C)n1")
"A (EC1.5<1 μM)"
>>> result("O=C(Nc1ccccn1)c1cnn2ccc(-c3ccccc3C(F)(F)F)nc12")
"A (EC1.5<1 μM)"
>>> result("O=C(Nc1ccnc(OCC(F)(F)F)n1)c1cnc2ccc(-c3ccccc3C(F)(F)F)nn12")
"B (EC1.5 1-25 μM)"
>>> result("Cc1nn2ccc(-c3ccccc3C(F)(F)F)nc2c1C(=O)Nc1ncc(F)cc1F")
"B (EC1.5 1-25 μM)"
>>> result("Cc1nc(NC(=O)c2c(C)nn3ccc(-c4ccccc4C(F)(F)F)nc23)sc1C")
"A (EC1.5<1 μM)"
>>> result("Cc1cc(C)nc(C(=O)Nc2cnc3ccc(-c4ccccc4C(F)(F)F)nn23)n1")
"A (EC1.5<1 μM)"
>>> result("O=C(Nc1cnn2ccc(-c3ccccc3C(F)(F)F)nc12)c1cnccn1")
"B (EC1.5 1-25 μM)"
>>> result("O=C(Nc1cnc2ccc(-c3ccccc3C(F)(F)F)nn12)c1cc(O)ncn1")
"A (EC1.5<1 μM)"

====

target: UniProt:Q96EB6; assay: TAMRA based mass spectrometry assay of SIRT1 activity; assay type: biochemical; conditions: TAMRA assay; concentration giving 150% activation of SIRT1
quantity: TAMRA EC1.5 (μM)

>>> result("O=C(Nc1cnccn1)c1cnc2ccc(-c3ccccc3OC(F)(F)F)nn12")
"A (EC1.5<1 μM)"
>>> result("Cc1cccc(NC(=O)c2cnc3ccc(-c4ccccc4OC[C@H](O)CO)nn23)n1")
"A (EC1.5<1 μM)"
>>> result("Cc1ccc(NC(=O)c2cnn3ccc(-c4ccccc4OC(F)(F)F)nc23)nc1")
"C (EC1.5>25 μM)"
>>> result("O=C(Nc1ccncc1F)c1cnn2ccc(-c3ccccc3OC(F)(F)F)nc12")
"A (EC1.5<1 μM)"
>>> result("O=C(Nc1cncc(F)c1)c1cnn2ccc(-c3ccccc3OC(F)(F)F)nc12")
"A (EC1.5<1 μM)"
>>> result("Cc1nc2ccc(-c3ccccc3Cl)nn2c1NC(=O)c1cscn1")
"C (EC1.5>25 μM)"
>>> result("Cc1nc2c(C)cc(-c3ccccc3C(F)(F)F)nn2c1C(=O)Nc1ccnc(C(C)(C)C)n1")
"A (EC1.5<1 μM)"

====

target: SIRT1 (Homo sapiens); test: TAMRA based mass spectrometry assay of SIRT1 activity; format: biochemical; conditions: TAMRA assay; concentration giving 150% activation of SIRT1
quantity: TAMRA EC1.5 (μM)

>>> result("O=C(Nc1cnn2ccc(-c3ccccc3OC(F)(F)F)nc12)c1nc2c(s1)CCCC2 [Compound 780]")
"A (EC1.5<1 μM)"
>>> result("Cc1cc(NC(=O)c2cnc3ccc(-c4ccccc4OC(F)(F)F)nn23)ccn1 [Compound 364]")
"A (EC1.5<1 μM)"
>>> result("O=C(Nc1ccncc1F)c1cnc2ccc(-c3ccccc3OC[C@H](O)CO)nn12 [Compound 831]")
"B (EC1.5 1-25 μM)"
>>> result("CCOc1ccc(NC(=O)c2c(C)nc3ccc(-c4cccc(C)c4)nn23)nn1 [Compound 760]")
"A (EC1.5<1 μM)"
>>> result("Cc1nccc(NC(=O)c2cnn3ccc(-c4ccccc4OC(F)(F)F)nc23)c1C [Compound 613]")
"A (EC1.5<1 μM)"
>>> result("Cc1ccnc(NC(=O)c2c(C)nc3ccc(-c4ccccc4OC[C@H](O)CO)nn23)c1 [Compound 817]")
"A (EC1.5<1 μM)"
>>> result("Cc1ccc(NC(=O)c2cnn3ccc(-c4ccccc4OC(F)(F)F)nc23)c(C)n1 [Compound 625]")
"B (EC1.5 1-25 μM)"

====

Target: SIRT1 (Homo sapiens)
Sequence (Q96EB6 1-747): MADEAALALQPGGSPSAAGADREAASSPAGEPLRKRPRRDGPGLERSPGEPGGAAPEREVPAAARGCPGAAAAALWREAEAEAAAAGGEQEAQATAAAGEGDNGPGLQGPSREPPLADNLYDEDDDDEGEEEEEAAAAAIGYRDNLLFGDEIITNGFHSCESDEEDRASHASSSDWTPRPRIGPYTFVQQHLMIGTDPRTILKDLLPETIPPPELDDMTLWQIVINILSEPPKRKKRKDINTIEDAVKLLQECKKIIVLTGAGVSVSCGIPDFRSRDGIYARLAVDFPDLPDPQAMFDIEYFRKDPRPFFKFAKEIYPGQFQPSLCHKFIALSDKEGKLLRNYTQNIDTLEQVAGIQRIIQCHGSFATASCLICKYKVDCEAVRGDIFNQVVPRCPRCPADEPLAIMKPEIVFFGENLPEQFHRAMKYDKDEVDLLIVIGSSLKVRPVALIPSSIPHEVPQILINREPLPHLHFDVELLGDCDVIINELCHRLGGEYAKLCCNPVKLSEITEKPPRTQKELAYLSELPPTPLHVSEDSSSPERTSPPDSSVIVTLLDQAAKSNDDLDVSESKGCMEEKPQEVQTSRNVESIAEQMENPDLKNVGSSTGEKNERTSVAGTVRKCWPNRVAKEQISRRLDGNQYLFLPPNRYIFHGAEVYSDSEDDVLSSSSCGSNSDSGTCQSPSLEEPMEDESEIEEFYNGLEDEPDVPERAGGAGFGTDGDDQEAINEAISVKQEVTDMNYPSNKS
Test: Trp mass spectrometry assay of SIRT1 activity
Format: biochemical
Details: Trp assay; concentration giving 150% activation of SIRT1
quantity: Trp EC1.5 (μM)

>>> result("Cc1nc(C(=O)Nc2cnn3ccc(-c4ccccc4OC(F)(F)F)nc23)cs1 [Compound 752]")
"B (EC1.5 1-25 μM)"
>>> result("O=C(Nc1ccccn1)c1cnc2ccc(N3CCC(F)(F)C3)nn12 [Compound 909]")
"B (EC1.5 1-25 μM)"
>>> result("CN(C)[C@H]1CCN(c2ccc3ncc(C(=O)Nc4ccc(F)cn4)n3n2)C1 [Compound 874]")
"A (EC1.5<1 μM)"
>>> result("O=C(Nc1cnn2ccc(-c3ccccc3OC(F)(F)F)nc12)c1nc(C(F)(F)F)cs1 [Compound 770]")
"C (EC1.5>25 μM)"
>>> result("Cc1nc(C(=O)Nc2c(C)nc3ccc(-c4ccccc4Cl)nn23)cs1 [Compound 351]")
"C (EC1.5>25 μM)"
>>> result("Cn1ccc(NC(=O)c2cnc3ccc(N4CC[C@H](F)C4)nn23)n1 [Compound 891]")
"B (EC1.5 1-25 μM)"
>>> result("COc1cc(NC(=O)c2cnc3ccc(-c4ccccc4C(F)(F)F)nn23)ncn1 [Compound 197]")
"B (EC1.5 1-25 μM)"
>>> result("Cc1ncccc1C(=O)Nc1cnc2ccc(-c3ccccc3C(F)(F)F)nn12 [Compound 392]")
"C (EC1.5>25 μM)"
>>> result("O=C(Nc1cccnc1)c1cnn2ccc(-c3ccccc3C(F)(F)F)nc12 [Compound 239]")
"B (EC1.5 1-25 μM)"
>>> result("Cc1nc2ccc(-c3cccc(OC[C@H](O)CO)c3)nn2c1C(=O)Nc1ccc(F)cn1 [Compound 821]")
"A (EC1.5<1 μM)"
>>> result("Cc1cccc(NC(=O)c2c(C)nn3ccc(-c4ccccc4C(F)(F)F)nc23)n1 [Compound 628]")
"A (EC1.5<1 μM)"
>>> result("Cc1nc2ccc(N3CC[C@H](F)C3)nn2c1C(=O)Nc1ccncn1 [Compound 855]")
"B (EC1.5 1-25 μM)"
>>> result("CN(C)[C@H]1CCN(c2ccc3ncc(C(=O)Nc4ncccn4)n3n2)C1 [Compound 886]")
"B (EC1.5 1-25 μM)"
>>> result("Cc1cc(-c2ccccc2C(F)(F)F)nn2c(C(=O)Nc3ccnc(OC(C)C)n3)cnc12 [Compound 615]")
"A (EC1.5<1 μM)"
>>> result("CO[C@H]1CCN(c2ccc3ncc(C(=O)Nc4ccc(F)cn4)n3n2)C1 [Compound 935]")
"B (EC1.5 1-25 μM)"
>>> result("Cc1ccnc(C(=O)Nc2cnc3ccc(-c4ccccc4C(F)(F)F)nn23)c1 [Compound 233]")
"C (EC1.5>25 μM)"
>>> result("Cc1cnc(NC(=O)c2cnn3ccc(-c4ccccc4C(F)(F)F)nc23)c(C)n1 [Compound 724]")
"B (EC1.5 1-25 μM)"
>>> result("O=C(Nc1cnn2ccc(-c3ccccc3C(F)(F)F)nc12)c1nc(C(F)(F)F)cs1 [Compound 809]")
"C (EC1.5>25 μM)"
>>> result("Cc1nc2ccc(N3CC[C@H](N(C)C)C3)nn2c1C(=O)Nc1ncccn1 [Compound 885]")
"B (EC1.5 1-25 μM)"
>>> result("N#Cc1ccccc1-c1ccc2ncc(NC(=O)c3nccs3)n2n1 [Compound 335]")
"B (EC1.5 1-25 μM)"
>>> result("COc1cccc(NC(=O)c2cnc3ccc(-c4ccccc4F)nn23)n1 [Compound 244]")
"A (EC1.5<1 μM)"
>>> result("Cc1c(-c2ccccc2C(F)(F)F)nn2c(C(=O)Nc3cccc(N4CCOCC4)n3)cnc2c1C [Compound 227]")
"B (EC1.5 1-25 μM)"
>>> result("O=C(Nc1ccc(F)cn1)c1cnc2ccc(-c3cccc(OC[C@H](O)CO)c3)nn12 [Compound 884]")
"B (EC1.5 1-25 μM)"
>>> result("O=C(Nc1cnn2ccc(-c3ccccc3OC(F)(F)F)nc12)c1cscn1 [Compound 785]")
"C (EC1.5>25 μM)"
>>> result("CCNc1cccc(NC(=O)c2cnc3ccc(-c4ccccc4Cl)nn23)n1 [Compound 326]")
"A (EC1.5<1 μM)"
>>> result("Cc1cc(C)nc(C(=O)Nc2cnc3ccc(-c4ccccc4C(F)(F)F)nn23)n1 [Compound 221]")
"B (EC1.5 1-25 μM)"
>>> result("O=C(Nc1ccc(F)cn1)c1cnc2ccc(N3CCC(F)(F)C3)nn12 [Compound 907]")
"B (EC1.5 1-25 μM)"
>>> result("O=C(Nc1ccncc1F)c1cnc2ccc(N3CCC(F)(F)C3)nn12 [Compound 903]")
"C (EC1.5>25 μM)"
>>> result("Cc1cc(NC(=O)c2c(C)nc3ccc(-c4ccccc4OC[C@H](O)CO)nn23)nc(C)n1 [Compound 818]")
"B (EC1.5 1-25 μM)"
>>> result("Cc1cnc(C(=O)Nc2cnc3ccc(-c4ccccc4OC(F)(F)F)nn23)s1 [Compound 320]")
"B (EC1.5 1-25 μM)"
>>> result("O=C(Nc1ccc(F)cn1)c1cnc2ccc(N3CC[C@H](F)C3)nn12 [Compound 838]")
"B (EC1.5 1-25 μM)"
>>> result("Cc1ncccc1NC(=O)c1c(C)nn2ccc(-c3ccccc3Br)nc12 [Compound 824]")
"A (EC1.5<1 μM)"
>>> result("Cc1ccnc(NC(=O)c2c(C)nc3c(OC[C@H](O)CO)cc(-c4ccccc4C(F)(F)F)nn23)c1 [Compound 859]")
"A (EC1.5<1 μM)"
>>> result("CC(C)c1nccc(C(=O)Nc2cnn3ccc(-c4ccccc4C(F)(F)F)nc23)n1 [Compound 796]")
"B (EC1.5 1-25 μM)"
